system: TK-10 renal; experiment: NCI tumour cell line growth inhibition, 48 h
Value type: TGI

molecule=Cc1ccc(NC(=O)c2cccc(OP(=O)(O)Nc3ccc(C)cc3)c2)cc1 value_type=TGI measured="> 100 µM"
molecule="COC(=O)C(NC(=O)c1ccccc1)c1ccco1 (stereo unspecified)" value_type=TGI measured="> 100 µM"
molecule=CCOP(=O)(CN1CCNCCNCC1)OCC value_type=TGI measured="> 100 µM"
molecule=O=C1NN(C2=NNC3(C(=O)N2)c2ccccc2-c2ccccc23)C(c2ccccc2)=N/C1=C/c1ccc(O)cc1 value_type=TGI measured="71.9 µg/mL"
molecule="COC(=O)C1=C(C(=O)OC)c2cc(OC)ccc2C(C(=S)N(C)C)S1 (stereo unspecified)" value_type=TGI measured="> 100 µM"
molecule=O=C1O/C(=C(/Br)c2ccc(Cl)c(Cl)c2)c2ccccc21 value_type=TGI measured="> 10 µM"
